Data provenance: patent US20250042994A1

# STUDY_TARGET: T1, cynomolgus monkey CD19 on peripheral blood B cells (cynomolgus monkey (Macaca fascicularis), UniProt A0A2K5W8L9 20-557)
# T1 construct: whole, on cells; also called cynomolgus monkey B cells
# T1 sequence: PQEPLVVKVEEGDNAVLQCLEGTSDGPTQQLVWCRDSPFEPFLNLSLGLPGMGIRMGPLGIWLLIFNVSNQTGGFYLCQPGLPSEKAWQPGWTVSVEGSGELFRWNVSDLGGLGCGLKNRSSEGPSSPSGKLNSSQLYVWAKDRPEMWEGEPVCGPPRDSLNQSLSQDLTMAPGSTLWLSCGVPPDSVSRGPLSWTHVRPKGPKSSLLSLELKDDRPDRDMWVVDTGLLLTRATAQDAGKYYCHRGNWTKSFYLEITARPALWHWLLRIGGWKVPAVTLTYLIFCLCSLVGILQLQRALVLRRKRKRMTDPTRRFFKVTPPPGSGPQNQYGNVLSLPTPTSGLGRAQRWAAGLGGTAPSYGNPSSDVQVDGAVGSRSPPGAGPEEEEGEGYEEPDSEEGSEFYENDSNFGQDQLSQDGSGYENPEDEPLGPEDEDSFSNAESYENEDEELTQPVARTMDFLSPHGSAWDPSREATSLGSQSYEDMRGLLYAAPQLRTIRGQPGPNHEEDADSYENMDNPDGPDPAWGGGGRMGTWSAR
# ASSAY: FACS, cynomolgus PBMC, CD20+ B cells
READOUT_LABEL: Proportion of chimeric antibody positive cells to B cells (%) at 10 nM
Answer format: numeric, % implied, no suffix.

QUERY: # input binder: F4.152.7 (antibody, human IgG1, V domains shown, human-murine chimeric antibody, human IgG1) VH: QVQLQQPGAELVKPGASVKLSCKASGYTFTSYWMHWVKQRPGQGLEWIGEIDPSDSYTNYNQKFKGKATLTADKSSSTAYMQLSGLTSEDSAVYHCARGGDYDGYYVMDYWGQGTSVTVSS VL: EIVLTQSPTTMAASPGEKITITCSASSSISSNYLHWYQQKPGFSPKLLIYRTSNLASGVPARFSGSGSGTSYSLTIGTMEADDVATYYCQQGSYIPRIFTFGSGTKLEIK ; wanted: its Proportion of chimeric antibody positive cells to B cells (%) at 10 nM
RESULT: 2

Note: attention shifts to another entry.
QUERY: Returns the measured Proportion of chimeric antibody positive cells to B cells (%) at 10 nM for the input binder. Input: F5.2.9 (antibody, human IgG1, V domains shown, human-murine chimeric antibody, human IgG1) VH: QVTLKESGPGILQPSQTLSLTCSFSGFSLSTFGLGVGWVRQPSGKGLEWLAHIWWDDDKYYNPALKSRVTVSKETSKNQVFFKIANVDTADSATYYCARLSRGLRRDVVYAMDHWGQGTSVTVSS VL: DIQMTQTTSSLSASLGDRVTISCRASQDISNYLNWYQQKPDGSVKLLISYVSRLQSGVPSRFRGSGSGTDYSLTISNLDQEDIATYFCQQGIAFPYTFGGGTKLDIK
RESULT: 98
